B1: glmS ribozyme (parent)
chain: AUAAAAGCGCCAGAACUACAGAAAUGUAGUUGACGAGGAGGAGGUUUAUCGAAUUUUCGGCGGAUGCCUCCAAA

Variants of: B1
protocol.details: self-cleavage kobs at 40 uM GlcN6P; higher = faster cleavage; RNA array
condition.notes: with glucosamine-6-phosphate
This sample holds only a part of the variants without activity.

input.sequence	prefix.operator	self-cleavage kobs at 40 uM GlcN6P, s⁻¹
AUAAAACCGCCAGAACUACAGAAAUGUAGUUGACGAGGAGGAGGUUUUUCGAAUUUUCGGCGGAUGCCUCCAAA	<	1e-05
AUAAAAGCGCCAGAACUACAGAAAUGUAGUUGACGUGGAGGAGGUUUAUCGAAUUUUCGGCGGAUGCCUACAAA	=	3.96e-05
AUAAAAGCGCCAGAACUACAGAAAUGUAGUUGACGAGGAGGAGGUUUAUCAAAUUUUCGGCAGAUGCCUCCAAA	<	1e-05
AUAAAAGCGCCAGCACUACAGAAAUGUAGUUGACGACGAGGAGGUUUAUCGAAUUUUCGGCGGAUGCCUCCAAA	<	1e-05
AUAAAAGCGCCAGAACUACAGAAAUGUAGUUGAUGAGGAGGAGGUUUAUCGAAUUUUCGGAGGAUGUCUCCAAA	=	0.00014
AUAAAAGCGCCAGAACUACAGAAAUGUAGUUGACGAGGGUGAGGUUUAUCGAAUCUUCGGCGGAUGCCUCAAAA	=	0.000207
AUAAACGCGCCAGAACUACAGAAAUGUAGUUGACGAGGAGGAGGUUUAUCGAAUUUUGGGCGGAUGCCUCCAAA	<	1e-05
AUAAAAGCUCCAGAACUACAGAAAUGUAGUUGACGAGGAGGAGGUUUAUCGAAUUUUCUGCGGAUGCCUCCAAA	<	1e-05
AUAAAAGGGCCAGAACUACAGAAAUGUAGUUGACGAGGAGGAGGUUUAUCGAAUUUUCGGCGGAUGCCUCUAAA	<	1e-05
AUAAAAGCGCCAGAACUACAGAAAUGUAGUUGACGAGGAGUAGGUUUAUCGAAUUUUCGGCGGAUGCCUUCAAA	=	0.000457
AUAAAAGCGCCAGAACUACAGAAAUGUAGUUGACGAGGUGGAGGUUAAUCGAAUUUUCGGCGGAUGCCUCCAAA	=	0.000309
AUAAAAGCGCCAGAACUACAGAAAUGUAGUUGACGAGGAGGAGGUUUAUCGAAUUUUCGGCGACUGCCUCCAAA	<	1e-05
AUAAAAGCGCCUGAACUACAGAAAUGUAGUUGACGAGGAGGAGGUUUAUGGAAUUUUCGGCGGAUGCCUCCAAA	=	4.38e-05
AUAAAAGCGCCAGAACUACAGAAAUGUAGUUGACGAGGUGGAGGUUUAUCGAAUUUUCGGCGGAUGACUCCAAA	=	0.000197
AUAAAAGCGCCAGAACUACAGAAAUGUAGUUGACGAGGAGGAGGUUUUUCGGAUUUUCGGCGAAUGCCUCCAAA	<	1e-05
AUAAAAGCGCCAGAACUACAGAAAUGUAGUUGACGAGGAGGAGGUUUAUCGAAUUUUCGGCGGAUGCUUAUAAA	<	1e-05
AUAAAAGUGCCAGAACUACAGAAAUGUAUUUGACGAGGAGGAGGUUUAUCGAAUUUUCGGCGGAUGCCUCCAAA	<	1e-05
AUAAAAGCACCAGGACUACAGAAAUGUAGAUGACGAGGAGGAGGUUUAUCGAAUUUUCGGCGGAUGCCUCCAAA	<	1e-05
AUAAAAGCGCCAGUACUACAGAAAUGUAGUUGACGAGGAGGAGGUGUAUCGAAUUUUCGGCGAAAGCCUGGAAA	=	4.47e-05
AUAAAAGCGCCAGACCUACAGAAAUGUAGUUGACGAGGAGGAGGUUUAUCGAAUUUUCGGUGGAUGCCUCCAAA	<	1e-05
AUAAAAGCGCCAGAGCUACAGAAAUGUAGUUGACGAGGAGGAGGUCUAUCGAAUUUUCGGCGGAUGCCUCCAAA	=	0.000112
AUAAAAGCGCCAGAACUACAGAAAUGUAGUUGAGGAGGAGGAGGUUUGUCGAAUUUUCGGCGGAUGCGUCCAAA	=	8.52e-05
